- System: SK-MEL-5 melanoma
- method summary: NCI-60 one-dose screen, 48 h (100 = growth as untreated, 0 = no growth, -100 = all killed)
- recorded conditions: 10 µM unless noted
This is part of a sample that, as a whole, favours compounds with a hit. Of some 83,000 tested, about 20% had one in any assay.
Response field label takes rule met when growth is strictly below 80% and rule not met in all other cases.

| molecule | answer label |
| --- | --- |
| O=C(Nc1ccc2cc3ccc(NC(=O)N4CCCCCC4)cc3nc2c1)N1CCCCCC1 | rule met |
| CN1CCN(CCCOc2ccc3ncnc(Nc4ccc(Oc5cccc(C(F)(F)F)c5)c(Cl)c4)c3c2)CC1 | rule met |
| O=C(O)CNC(=O)CN1C(=O)c2ccccc2C1=O | rule not met |

For this molecule, is growth lower than 80%? "COc1cc(NCCCN(CC(C)C)CC(C)C)c2ncccc2c1"
rule not met

For this molecule, is growth lower than 80%? "CS(=O)(=O)OCCN(CCOS(C)(=O)=O)c1ccc(/C=N/Nc2ccc([N+](=O)[O-])cc2[N+](=O)[O-])cc1"
rule not met

For this molecule, is growth lower than 80%? "C[C@]12C[C@H]1CC[C@]1(C)[C@@H]2CC[C@@]23C[C@H](CC[C@H]21)[C@@](O)(CO)C3"
rule not met

For this molecule, is growth lower than 80%? "NC(=O)c1cccc(-c2ccccc2N2CCCCC2)c1"
rule not met

For this molecule, is growth lower than 80%? "Cc1ccc(S(=O)(=O)Nc2ccc(Cl)cc2)cc1"
rule not met
